- Assay Name: NCI Yeast Anticancer Drug Screen. Data for the rad50 strain (AID 155);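 also: 0% = growth of vehicle-only cultures of the same strain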
- Setup Conditions: S. cerevisiae rad50 strain growth inhibition; at 5.0 µM (retest, dose inferred, filed as 0.5)
The panel holds about 79,000 compounds, 15% with a hit somewhere; the sample as a whole holds those more often. The source made the active and inactive calls. Rule as the data show it: active = growth inhibition above about 70%; inactive = the rest.
Please answer using one outcome listed in yes (1) for active, no (0) for inactive

Illustrative cases are given below, each with its answer.
- Compound: "Clc1cc(Cc2ccc(N=C/C=C/c3ccccc3)c(Cl)c2)ccc1N=C/C=C\\c1ccccc1"
  Label Class: "yes (1)"
- Compound: "N#C/C(=C\\c1ccccc1)c1ccccc1F"
  Label Class: "no (0)"
- Compound: "O=C1c2ccccc2C(=O)c2cc(S(=O)(=O)Nc3ccccc3)ccc21"
  Label Class: "no (0)"
- Compound: "O=C(Nc1ccc2c(c1)Cc1c-2ccc([N+](=O)[O-])c1F)C(F)(F)F"
  Label Class: "no (0)"
- Compound: "COc1ccc(SCc2cc(OC)ccc2OC)cc1"
  Label Class: "no (0)"

**Query** Which outcome did this test record for the compound OC(CN1CCCCC1)c1cc(Cl)c(Cl)c(Cl)c1 (stereo unspecified) ?
**Result** no (0)

**Query** Same again, this time with CCC(=O)N(c1ccccc1)C(C)CN1CCC(O)(c2cccc(C(F)(F)F)c2)CC1 (stereo unspecified)
**Result** no (0)

**Query** Query `N#C/C(=C/N1C(=O)/C(=C/c2ccc([N+](=O)[O-])cc2)SC1=S)c1nc2ccccc2s1` next
**Result** no (0)

**Query** Try this compound too: `NC(N)=NCCCS(=O)(=O)Nc1ccc(Nc2c3ccccc3nc3cc([N+](=O)[O-])ccc23)cc1`
**Result** no (0)

**Query** Param item: O=S1(=O)c2ccccc2N=C(c2ccccc2Cl)CC1c1ccc(F)cc1 (stereo unspecified)
**Result** no (0)

**Query** Same read-out for `BrCc1ccccc1C(c1ccccc1)c1ccccc1` ?
**Result** no (0)
